Data credit: patent US6008352A

Recorded measurements of pKi, one per entry
Molecular target: D4 receptor
Assay: D4 receptor binding assay (3H-YM 09151-2 displacement)
Conditions: 0.5 nM 3H-YM 09151-2; nonspecific binding with 1 mM spiperone
pKi: −log10 of the molar value.

smiles-structure: Fc1ccc(CN2CCN(c3nccc4ccccc34)CC2)cc1F
measured-target: D4 receptor
pKi: 7.89

smiles-structure: Cc1ccc(CN2CCN(c3nccc4ccccc34)CC2)cc1
measured-target: D4 receptor
pKi: 8.05

smiles-structure: Clc1ccc(CN2CCN(c3nccc4ccccc34)CC2)cc1
measured-target: D4 receptor
pKi: 8.30

smiles-structure: c1ccc2c(N3CCN(Cc4ccc5c(c4)OCO5)CC3)nccc2c1
measured-target: D4 receptor
pKi: 7.72
